# study target: CCR2 (Homo sapiens)
# Construct: host or cells: THP-1 (human monocytic cell line)
# Sequence (P41597 whole entry): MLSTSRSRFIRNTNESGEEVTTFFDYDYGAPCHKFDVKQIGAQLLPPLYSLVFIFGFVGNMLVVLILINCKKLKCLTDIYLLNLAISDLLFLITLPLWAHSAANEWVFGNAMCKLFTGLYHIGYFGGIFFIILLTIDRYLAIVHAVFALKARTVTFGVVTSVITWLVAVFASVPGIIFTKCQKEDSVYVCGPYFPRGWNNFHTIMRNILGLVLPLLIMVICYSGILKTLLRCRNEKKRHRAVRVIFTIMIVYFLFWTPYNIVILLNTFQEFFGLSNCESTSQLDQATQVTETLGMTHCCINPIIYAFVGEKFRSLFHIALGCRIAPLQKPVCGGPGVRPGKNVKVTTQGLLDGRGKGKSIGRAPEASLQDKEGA
# assay method text: MCP-1 Receptor Binding Assay in THP-1 Cells
# study conditions: test concentration of 25 μM, 125I labeled MCP-1 0.5 nM
Listed here are compounds together with their documented Inhibition of MCP-1 Binding Inh (%).
outcome measure: Inhibition of MCP-1 Binding Inh (%)

compound: CCN(C1CCN(C(=O)/C=C/c2cc(F)c(F)c(F)c2)CC1)N1CCC(c2c[nH]c3ccccc23)CC1 [Compound 4b]
study target: CCR2 (Homo sapiens)
outcome measure: Inhibition of MCP-1 Binding Inh (%)
units of measure: %
observed result: 34
--
compound: CN(C1CCN(C(=O)/C=C/c2cc(F)c(F)c(F)c2)CC1)N1CCC(c2c[nH]c3ccccc23)CC1 [Compound 4a]
study target: CCR2 (Homo sapiens)
outcome measure: Inhibition of MCP-1 Binding Inh (%)
units of measure: %
observed result: 59
--
compound: O=C(/C=C/c1cc(F)c(F)c(F)c1)N1CCC(N(Cc2ncc[nH]2)N2CCC(c3c[nH]c4ccccc34)CC2)CC1 [Compound 4e]
study target: CCR2 (Homo sapiens)
outcome measure: Inhibition of MCP-1 Binding Inh (%)
units of measure: %
observed result: 20
--
compound: CC(C)CN(C1CCN(C(=O)/C=C/c2cc(F)c(F)c(F)c2)CC1)N1CCC(c2c[nH]c3ccccc23)CC1 [Compound 4c]
study target: CCR2 (Homo sapiens)
outcome measure: Inhibition of MCP-1 Binding Inh (%)
units of measure: %
observed result: 0
